Listed below: OD450 values for each entry.
Biological target: T1, monkey TIM-3 extracellular domain protein with hFc tag (cTIM-3-hFc) (monkey)
T1 construct: not shown: human IgG Fc fragment (hFc) of the pCpC vector
T1 chain: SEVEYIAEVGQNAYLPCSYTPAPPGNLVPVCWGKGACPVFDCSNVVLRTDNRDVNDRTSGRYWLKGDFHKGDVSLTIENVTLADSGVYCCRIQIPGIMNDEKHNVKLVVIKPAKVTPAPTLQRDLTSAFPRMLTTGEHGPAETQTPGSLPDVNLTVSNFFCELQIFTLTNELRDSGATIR
Assay: ELISA, coated monkey TIM-3 ECD protein, 0.0067 nM antibody
Lab note: write the figure by itself, no unit.

Below, 3 binders whose answers are already recorded.
- binder: "39E5H1 fully human TIM-3 antibody (human IgG4, kappa) (antibody, V domains shown) VH: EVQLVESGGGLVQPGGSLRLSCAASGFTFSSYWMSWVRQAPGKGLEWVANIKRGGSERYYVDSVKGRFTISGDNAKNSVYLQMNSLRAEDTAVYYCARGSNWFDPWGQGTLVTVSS VL: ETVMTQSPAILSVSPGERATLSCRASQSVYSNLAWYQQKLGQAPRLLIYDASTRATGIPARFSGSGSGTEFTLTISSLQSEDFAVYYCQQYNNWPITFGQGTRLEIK"
  value-kind: "OD450"
  measured-value: 0.3
- binder: "57F4E5 fully human TIM-3 antibody (human IgG4, kappa) (antibody, V domains shown) VH: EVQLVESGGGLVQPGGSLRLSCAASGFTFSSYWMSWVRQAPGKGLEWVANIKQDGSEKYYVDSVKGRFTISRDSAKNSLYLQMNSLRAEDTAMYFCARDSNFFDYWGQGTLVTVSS VL: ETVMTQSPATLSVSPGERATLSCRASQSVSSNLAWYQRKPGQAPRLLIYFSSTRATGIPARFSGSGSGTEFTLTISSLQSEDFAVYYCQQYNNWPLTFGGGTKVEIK"
  value-kind: "OD450"
  measured-value: 0.32
- binder: "18D2H2 fully human TIM-3 antibody (human IgG4, kappa) (antibody, V domains shown) VH: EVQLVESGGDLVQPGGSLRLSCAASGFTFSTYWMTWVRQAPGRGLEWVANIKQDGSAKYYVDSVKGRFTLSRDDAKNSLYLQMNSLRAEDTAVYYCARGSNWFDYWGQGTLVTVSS VL: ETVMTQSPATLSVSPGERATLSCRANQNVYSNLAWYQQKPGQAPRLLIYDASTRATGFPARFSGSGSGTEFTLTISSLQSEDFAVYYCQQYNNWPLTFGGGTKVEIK"
  value-kind: "OD450"
  measured-value: 0.33

Item 34B6D8 fully human TIM-3 antibody (human IgG4, kappa) (antibody, V domains shown) VH: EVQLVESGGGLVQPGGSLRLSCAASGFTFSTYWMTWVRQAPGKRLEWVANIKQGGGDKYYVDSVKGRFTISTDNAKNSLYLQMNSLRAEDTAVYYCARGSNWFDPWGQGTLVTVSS VL: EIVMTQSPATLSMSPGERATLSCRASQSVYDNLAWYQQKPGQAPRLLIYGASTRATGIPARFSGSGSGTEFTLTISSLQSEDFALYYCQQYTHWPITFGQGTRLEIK : provide OD450
0.37

Item 134H3G6 fully human TIM-3 antibody (human IgG4, kappa) (antibody, V domains shown) VH: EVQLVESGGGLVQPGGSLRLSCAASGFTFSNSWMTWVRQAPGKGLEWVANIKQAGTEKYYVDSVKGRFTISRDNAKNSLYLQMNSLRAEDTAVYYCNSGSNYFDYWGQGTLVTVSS VL: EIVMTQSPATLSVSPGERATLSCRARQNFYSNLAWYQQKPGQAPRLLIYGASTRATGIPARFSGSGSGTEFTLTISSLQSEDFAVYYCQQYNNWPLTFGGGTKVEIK : provide OD450
0.3

Item 7A4F10 fully human TIM-3 antibody (human IgG4, kappa) (antibody, V domains shown) VH: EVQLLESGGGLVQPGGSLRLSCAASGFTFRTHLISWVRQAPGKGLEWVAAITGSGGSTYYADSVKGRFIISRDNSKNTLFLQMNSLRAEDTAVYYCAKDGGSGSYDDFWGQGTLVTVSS VL: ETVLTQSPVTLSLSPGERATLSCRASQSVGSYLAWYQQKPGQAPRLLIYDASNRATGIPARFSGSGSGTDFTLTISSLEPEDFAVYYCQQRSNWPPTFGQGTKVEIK : provide OD450
0.18
